# Protocol: qHTS Assay for Identifying a Potential Treatment of Ataxia-Telangiectasia: Secondary assay (no NCS) hit validation;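 also: phosphorylated KAP1 signal as a proxy for ATM-like kinase activity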; also: potency is read from the fitted curve at half-maximal effect
# Measurement conditions: A-T patient fibroblasts, AlphaLISA, no DNA damage added, 90 min; series mostly up to 76.9 µM
Results filed as inconclusive are left out. Calls of active or inactive are those of the source. Calls follow the shape of the dose curve; as a rule, active = well fitted activation curve with a large enough effect; inconclusive = small, poorly fitted or top-dose-only effect; inactive = no such curve, though single readings can be large or run the other way.
Observed property: Potency

Example molecules with recorded Potency:
| Molecule | Potency |
| --- | --- |
| Cc1cc(C)c2c(Cn3ccnc3)cc(=O)oc2c1 | inactive |
| C=C(C)n1c(=O)n(Cc2ccccc2C)c2ccccc21 | inactive |
| CNC(=O)/C=C/c1cc(C(=O)c2ccc(Cl)cc2Cl)cn1C | inactive |
| O=C(c1ccc(F)cc1)N1CCC(c2ccccc2)C1 (stereo not drawn) | inactive |
| Cc1ccc(NC(=O)CSc2nnc([C@H](C)NC(=O)OC(C)(C)C)o2)c(C)c1 | inactive |

Hi team, please reply with Potency for each item in this list.
1. CCCCCCCCCn1ccc(=N)cc1
2. O=C1NC(NS(=O)(=O)c2ccc(Cl)cc2)(C(F)(F)F)C(=O)N1CCc1ccccc1 (stereo not drawn)

# output
1. inactive
2. inactive

Hi team, please reply with Potency for each item in this list.
1. COc1cccc(/C=N/NC(=O)c2cc3cc([N+](=O)[O-])ccc3s2)c1O
2. CN(C)C(=O)c1nc2ccc(Cl)cn2c1CNCc1cccc(OC(F)(F)F)c1
3. CC(C)CC(=O)Nc1c2c(nn1-c1cccc(Cl)c1)CS(=O)C2 (stereo not drawn)
4. CCN(CC)c1ccc2c(Cl)c(Br)c(=O)oc2c1
5. Cc1cccc(NC(=O)/C(C#N)=C/c2ccc(F)cc2)n1
6. CC(=O)/C(N=Nc1nc2c([nH]1)c(=O)n(C)c(=O)n2C)=C(\C)O

# output
1. 46.3 µM (active)
2. inactive
3. 58.2 µM (active)
4. inactive
5. 1.84 µM (active)
6. inactive

Hi team, please reply with Potency for each item in this list.
1. Cc1cc(C)n2nc(C(=O)OCCOc3ccc(F)cc3)nc2n1
2. COc1ccc(-n2c(=S)[nH]c3ccccc3c2=S)cc1
3. S=c1[nH]nc(C2CCCCC2)n1/N=C/c1ccc(Br)cc1

# output
58.2 µM (active)
inactive
inactive

Hi team, please reply with Potency for each item in this list.
1. CCOC(=O)c1c(CSc2ccsc2)n(C)c2cc(Br)c(O)c(CN(C)C)c12
2. Cc1[nH]c2c(C)cccc2c1CN1CCC(CO)(Cc2ccccc2)CC1
3. COc1ccc(C2(C)CC(C)(C)Nc3ccccc32)cc1 (stereo not drawn)
4. CCOC(=O)N1CCC(NC(=O)C2CCN(S(=O)(=O)c3cccc4cccnc34)CC2)CC1
5. CCCN1C2CCCC1CC(NC(=S)Nc1cccc(C)c1C)C2 (stereo not drawn)
6. CNC(=S)N/N=C/c1ccc2c(c1)OCCO2
7. COc1ccc(-c2csc(-c3ccc(O)cc3)n2)cc1

# output
1. 26 µM (active)
2. 1.84 µM (active)
3. inactive
4. inactive
5. inactive
6. inactive
7. inactive
